Data origin: ChEMBL document CHEMBL3352063

Measurement target: Beta-secretase 1 (Homo sapiens, UniProt P56817)
Sequence (P56817 whole entry): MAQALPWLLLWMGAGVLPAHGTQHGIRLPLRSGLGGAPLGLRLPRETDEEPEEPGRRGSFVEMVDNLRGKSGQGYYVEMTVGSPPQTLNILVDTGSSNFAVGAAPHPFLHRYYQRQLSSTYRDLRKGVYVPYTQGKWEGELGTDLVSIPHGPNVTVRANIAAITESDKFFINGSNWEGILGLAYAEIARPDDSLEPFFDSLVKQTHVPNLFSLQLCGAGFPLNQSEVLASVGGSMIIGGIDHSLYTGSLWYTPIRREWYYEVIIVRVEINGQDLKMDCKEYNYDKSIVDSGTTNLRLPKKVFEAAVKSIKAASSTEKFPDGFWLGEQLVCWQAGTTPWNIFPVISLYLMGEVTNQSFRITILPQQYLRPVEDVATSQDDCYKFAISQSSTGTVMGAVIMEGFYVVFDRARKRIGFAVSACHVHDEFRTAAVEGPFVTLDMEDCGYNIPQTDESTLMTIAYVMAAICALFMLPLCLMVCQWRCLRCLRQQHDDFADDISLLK
pIC50: −log10 of the molar value. Square brackets hold non-standard residues; d marks the D form. Peptide text beside a SMILES is read from it. * marks the point of attachment. Sta = CC(C)C[C@H](N)[C@@H](O)CC(=O)O; NHPhenethyl = c1ccc(CCN*)cc1; Cbz = O=C(OCc1ccccc1)*; Bz = O=C(c1ccccc1)*; GABA = NCCCC(=O)O
Measurement name: pIC50

Worked cases, pIC50 given:
| Compound | Measurement target | Value observed |
| --- | --- | --- |
| CC(C)C[C@H](NC(=O)[C@H](C)NC(=O)[C@H](CCCNC(=N)N)NC(=O)OCc1ccccc1)[C@@H](O)CC(=O)NC1Cc2ccccc2C1 | Beta-secretase 1 (Homo sapiens, UniProt P56817) | < 4.00 |
| CC(C)C[C@H](NC(=O)[C@H](C)NC(=O)[C@H](CCCNC(=N)N)NC(=O)COCc1ccccc1)[C@@H](O)CC(=O)NCCc1ccccc1 | Beta-secretase 1 (Homo sapiens, UniProt P56817) | < 4.00 |
| CC(C)C[C@H](NC(=O)[C@H](C)NC(=O)[C@H](CCCNC(=N)N)NS(=O)(=O)c1ccccc1)[C@@H](O)CC(=O)NCCc1ccccc1 | Beta-secretase 1 (Homo sapiens, UniProt P56817) | < 4.00 |
| CC(=O)N[C@@H](CCCNC(=N)N)C(=O)N[C@@H](C)C(=O)N[C@@H](CC(C)C)[C@@H](O)CC(=O)N[C@@H](CCC(N)=O)C(N)=O (Ac-RA[Sta]Q-NH2) | Beta-secretase 1 (Homo sapiens, UniProt P56817) | < 4.00 |
| CC(=O)N[C@@H](CCCNC(=N)N)C(=O)N[C@@H](C)C(=O)N[C@@H](CC(C)C)[C@@H](O)CC(=O)NCCCC(N)=O (Ac-RA[Sta][GABA]-NH2) | Beta-secretase 1 (Homo sapiens, UniProt P56817) | < 4.00 |
| CC(C)C[C@H](NC(=O)[C@H](C)NC(=O)[C@H](CCCNC(=N)N)NC(=O)c1ccccc1)[C@@H](O)CC(=O)NCCc1ccccc1 (Bz-Arg-Ala-[Sta]-NHPhenethyl) | Beta-secretase 1 (Homo sapiens, UniProt P56817) | < 4.00 |
| CC(C)C[C@H](NC(=O)[C@@H](NC(=O)[C@H](CCCNC(=N)N)NC(=O)OCc1ccccc1)C(C)C)[C@@H](O)CC(=O)NC1CCCCC1 | Beta-secretase 1 (Homo sapiens, UniProt P56817) | < 4.00 |

Sample CC(C)C[C@H](NC(=O)[C@H](C)NC(=O)[C@H](CCCNC(=N)N)NC(=O)OCc1ccccc1)[C@@H](O)CC(=O)NCCc1ccccc1 (Cbz-Arg-Ala-[Sta]-NHPhenethyl) ; pIC50 observed: < 4.00
